Listed here: items and their measured fold change of Cadaverine concentration.
system: Escherichia coli IAI1; experiment: fold change of Cadaverine concentration vs plate DMSO controls (fold change (ratio)); higher = more amine produced, active = hit call of the paper (significant change in both replicates, either direction); settings: incubation time: 27 h, anaerobic, 37 °C
Counter-ions that a name gives are not always drawn.
outcome-measure: fold change of Cadaverine concentration

molecule | measurement
CCN(CC)CCNC(=O)c1ccc(N)cc1 [Procainamide hydrochloride] (20 µM) | 1.01
COc1cc(NS(=O)(=O)c2ccc(N)cc2)ncn1 [Sulfamonomethoxine] (20 µM) | 1.03
COc1ccc2c(c1)c(CC(=O)O)c(C)n2C(=O)c1ccc(Cl)cc1 [Indomethacin] (20 µM) | 1
CCOC(=O)[C@H](CCc1ccccc1)N[C@@H](C)C(=O)N1CCC[C@H]1C(=O)O [Enalapril maleate] (20 µM) | 0.967

----------
Listed here: items and their measured fold change of Histamine concentration.
system: Klebsiella aerogenes DSM 30053; assay: fold change of Histamine concentration vs plate DMSO controls (fold change (ratio)); higher = more amine produced, active = hit call of the paper (significant change in both replicates, either direction); conditions: incubation time: 27 h, anaerobic, 37 °C
Where a name gives a salt, the structure may show the parent alone.

compound | fold change of Histamine concentration
OC[C@H](O)C(O)[C@@H](O)CO [L-Arabinitol] (50 µM) | 1 (inactive)
CC1=C(C(=O)O)N2C(=O)[C@@H](NC(=O)[C@H](N)c3ccc(O)cc3)[C@H]2SC1 [Cefadroxil] (20 µM) | 1.08 (inactive)
COc1ccc(C(=O)c2ccccc2)c(O)c1 [Oxybenzone] (20 µM) | 0.962 (inactive)
COc1cc(/C=C/C(=O)N2CCN(CC(=O)N3CCCC3)CC2)cc(OC)c1OC [Cinepazide maleate] (20 µM) | 1.03 (inactive)
O=C(O)Cc1ccccc1Nc1c(Cl)cccc1Cl [Diclofenac sodium] (20 µM) | 1.06 (inactive)
O=C(Cn1ccnc1[N+](=O)[O-])NCCO [Etanidazole] (20 µM) | 0.832 (inactive)
CC1=C(CC(=O)O)c2cc(F)ccc2/C1=C\c1ccc([S+](C)[O-])cc1 (stereo not given) [Sulindac] (20 µM) | 0.931 (inactive)
COc1ccc(/C=C/C(=O)Nc2ccccc2C(=O)O)cc1OC [Tranilast] (20 µM) | 0.89 (inactive)
Nc1ccc(/N=N/c2ccccc2)c(N)n1 [Phenazopyridine hydrochloride] (20 µM) | 0.998 (inactive)
CCOC(=O)O[C@]1(C(=O)OCCl)CC[C@H]2[C@@H]3CCC4=CC(=O)C=C[C@]4(C)[C@H]3[C@@H](O)C[C@@]21C [Loteprednol etabonate] (20 µM) | 0.899 (inactive)
CC(N)C12CC3CC(CC(C3)C1)C2 (stereo not given) [Rimantadine hydrochloride] (20 µM) | 1.01 (inactive)
O=C1Nc2ccccc2C1(c1ccc(O)cc1)c1ccc(O)cc1 [Oxyphenisatin] (20 µM) | 1.03 (inactive)
O=C(CO)[C@@H](O)[C@H](O)[C@@H](CO)O[C@H]1O[C@H](CO)[C@@H](O)[C@H](O)[C@H]1O [Leucrose] (50 µM) | 1.02 (inactive)
CC(=O)O[C@@]12CO[C@@H]1C[C@H](O)[C@@]1(C)C(=O)[C@H](O)C3=C(C)[C@@H](OC(=O)[C@H](O)[C@@H](NC(=O)OC(C)(C)C)c4ccccc4)C[C@@](O)([C@@H](OC(=O)c4ccccc4)[C@H]21)C3(C)C [Docetaxel] (20 µM) | 1.05 (inactive)
Nc1nc2c(ncn2COC(CO)CO)c(=O)[nH]1 [Ganciclovir] (20 µM) | 1.04 (inactive)
